Catalogue of compounds with associated Organ Mean Total Flux Kidney
Tested on: mouse organs
test name: In vivo activity screening in mice: organ mean total flux (p/s) of luciferase activity after injection of F2 LNP pools (Table 6, FIG. 7A-7C)
condition description: Mouse 6, dose 0.5 mg/kg, luciferase mRNA
Marks after values point to notes of the source that are not given here.

Previously resolved entries follow.
{"compound": "CCCCCCCCCCOC(=O)CCCCCC(=O)OCC(COC(=O)CCCCCC(=O)OCCCCCCCCCC)(COC(=O)CCCCCC(=O)OCCCCCCCCCC)COC(=O)CCC(CCCCCC)OC(=O)NCCN1CCCC1 (stereo not shown)", "Organ Mean Total Flux Kidney": "2.7 p/s (×10^6)"}
{"compound": "CCCCCCCCOC(=O)CCCCCC(=O)OCC(COC(=O)CCCCCC(=O)OCCCCCCCC)(COC(=O)CCCCCC(=O)OCCCCCCCC)COC(=O)CCC(CCCCCC)OC(=O)NCCN1CCCC1 (stereo not shown)", "Organ Mean Total Flux Kidney": "6.7 p/s (×10^6)"}

input: Supply Organ Mean Total Flux Kidney value. Item: CCCCCCCCCCOC(=O)CCCCCCC(=O)OCC(COC(=O)CCCCCCC(=O)OCCCCCCCCCC)(COC(=O)CCCCCCC(=O)OCCCCCCCCCC)COC(=O)CCC(CCCCCC)OC(=O)NCCN1CCCC1 (stereo not shown)
output: 1.3 p/s (×10^6)

input: State its Organ Mean Total Flux Kidney: CCCCC/C=C\CCOC(=O)CCCCCCC(=O)OCC(COC(=O)CCCCCCC(=O)OCC/C=C\CCCCC)(COC(=O)CCCCCCC(=O)OCC/C=C\CCCCC)COC(=O)CCC(CCCC)OC(=O)NCCN1CCCC1 (stereo not shown)
output: 5.9 p/s (×10^6)

input: Specify measured Organ Mean Total Flux Kidney for CCCCC/C=C\CCOC(=O)CCCCC(=O)OCC(COC(=O)CCCCC(=O)OCC/C=C\CCCCC)(COC(=O)CCC(CCCCCC)OC(=O)NCCN1CCCC1)COC(=O)CC12CC3CC(CC(C3)C1)C2 (stereo not shown) .
output: 3.2 p/s (×10^6)

input: Recall and state the measured Organ Mean Total Flux Kidney for CCCCC/C=C\CCOC(=O)CCCCCCC(=O)OCC(COC(=O)CCCCCCC(=O)OCC/C=C\CCCCC)(COC(=O)CCCCCCC(=O)OCC/C=C\CCCCC)COC(=O)CCC(CCCCCC)OC(=O)NCCN(C)CC (stereo not shown) .
output: 3.2 p/s (×10^6)

input: Please list Organ Mean Total Flux Kidney recorded for the compound CCCCC/C=C\CCOC(=O)CCCCCC(=O)OCC(COC(=O)CCCCCC(=O)OCC/C=C\CCCCC)(COC(=O)CCCCCC(=O)OCC/C=C\CCCCC)COC(=O)CCC(CCCCCCCC)OC(=O)NCCN1CCCC1 (stereo not shown)
output: 0.9 p/s (×10^6)
